systemName: Serine/threonine-protein kinase NLK (Homo sapiens)
protocolSummary: Inhibition of NLK
testReadout: IC50

Problem: Looking for the measured IC50 of `CC(C)(C)NS(=O)(=O)c1cncc(-c2ccn3nc(N)nc3c2)c1` , can you help?
Solution: > 10 µM

---

systemName: MAP/microtubule affinity-regulating kinase 4 (Homo sapiens, UniProt Q96L34)
testReadout: IC50

Problem: Looking for the measured IC50 of `CC(C)(C)NS(=O)(=O)c1cncc(-c2ccn3nc(N)nc3c2)c1` , can you help?
Solution: > 10 µM

---

protocolSummary: Clearance in cynomolgus monkey
Type: ADME, organism-based, Macaca fascicularis
protocolConditions: in vivo
testReadout: clearance (mL/min/kg)
Unit mL/min/kg implied. Number only.

Problem: Looking for the measured clearance of `CC(C)(C)NS(=O)(=O)c1cncc(-c2ccn3nc(N)nc3c2)c1` , can you help?
Solution: 1.6

---

systemName: Casein kinase II subunit alpha' (Homo sapiens)
protocolSummary: Inhibition of CSNK2A2
testReadout: IC50

Problem: Looking for the measured IC50 of `CC(C)(C)NS(=O)(=O)c1cncc(-c2ccn3nc(N)nc3c2)c1` , can you help?
Solution: > 10 µM

---

protocolSummary: AUC in rat […] at 5 mg/kg, po
Assay type: ADME, organism-based
Set-up: dose 5 mg/kg, route oral
testReadout: AUC (µM·h)
Unit µM·h implied. Number only.

Problem: Looking for the measured AUC of `CNS(=O)(=O)c1cncc(-c2ccn3nc(N)nc3c2)c1` , can you help?
Solution: 6.7

---

systemName: Mitogen-activated protein kinase 9 (Homo sapiens)
protocolSummary: Inhibition of MAPK9
testReadout: IC50

Problem: Looking for the measured IC50 of `CC(C)(C)NS(=O)(=O)c1cncc(-c2ccn3nc(N)nc3c2)c1` , can you help?
Solution: > 10 µM

---

systemName: Mitogen-activated protein kinase kinase kinase 20 (Homo sapiens, UniProt Q9NYL2)
protocolSummary: Inhibition of ZAK
testReadout: IC50

Problem: Hello, I am looking for reported IC50 with Mitogen-activated protein kinase kinase kinase 20 (Homo sapiens, UniProt Q9NYL2) for `CC(C)(C)NS(=O)(=O)c1cncc(-c2ccn3nc(N)nc3c2)c1` . Could you help?
Solution: > 10 µM

---

systemName: Serine/threonine-protein kinase B-raf (Homo sapiens, UniProt P15056)
pIC50: −log10 of the molar value.
testReadout: pIC50

Problem: Looking for the measured pIC50 of `CC(C)(C)NS(=O)(=O)c1cncc(-c2ccn3nc(N)nc3c2)c1` , can you help?
Solution: < 5.00

---

systemName: Protein kinase C theta type (Homo sapiens)
pIC50: −log10 of the molar value.
testReadout: pIC50

Problem: Looking for the measured pIC50 of `CC(C)(C)NS(=O)(=O)c1cncc(-c2ccn3nc(N)nc3c2)c1` , can you help?
Solution: < 5.00

---

systemName: Cyclin-dependent kinase 7 (Homo sapiens)
protocolSummary: Inhibition of CDK7
pIC50: −log10 of the molar value.
testReadout: pIC50

Problem: Hello, I am looking for reported pIC50 with Cyclin-dependent kinase 7 (Homo sapiens) for `CC(C)(C)NS(=O)(=O)c1cncc(-c2ccn3nc(N)nc3c2)c1` . Could you help?
Solution: < 5.00

---

systemName: Mitogen-activated protein kinase kinase kinase 4 (Homo sapiens, UniProt Q9Y6R4)
Sequence (Q9Y6R4 whole entry): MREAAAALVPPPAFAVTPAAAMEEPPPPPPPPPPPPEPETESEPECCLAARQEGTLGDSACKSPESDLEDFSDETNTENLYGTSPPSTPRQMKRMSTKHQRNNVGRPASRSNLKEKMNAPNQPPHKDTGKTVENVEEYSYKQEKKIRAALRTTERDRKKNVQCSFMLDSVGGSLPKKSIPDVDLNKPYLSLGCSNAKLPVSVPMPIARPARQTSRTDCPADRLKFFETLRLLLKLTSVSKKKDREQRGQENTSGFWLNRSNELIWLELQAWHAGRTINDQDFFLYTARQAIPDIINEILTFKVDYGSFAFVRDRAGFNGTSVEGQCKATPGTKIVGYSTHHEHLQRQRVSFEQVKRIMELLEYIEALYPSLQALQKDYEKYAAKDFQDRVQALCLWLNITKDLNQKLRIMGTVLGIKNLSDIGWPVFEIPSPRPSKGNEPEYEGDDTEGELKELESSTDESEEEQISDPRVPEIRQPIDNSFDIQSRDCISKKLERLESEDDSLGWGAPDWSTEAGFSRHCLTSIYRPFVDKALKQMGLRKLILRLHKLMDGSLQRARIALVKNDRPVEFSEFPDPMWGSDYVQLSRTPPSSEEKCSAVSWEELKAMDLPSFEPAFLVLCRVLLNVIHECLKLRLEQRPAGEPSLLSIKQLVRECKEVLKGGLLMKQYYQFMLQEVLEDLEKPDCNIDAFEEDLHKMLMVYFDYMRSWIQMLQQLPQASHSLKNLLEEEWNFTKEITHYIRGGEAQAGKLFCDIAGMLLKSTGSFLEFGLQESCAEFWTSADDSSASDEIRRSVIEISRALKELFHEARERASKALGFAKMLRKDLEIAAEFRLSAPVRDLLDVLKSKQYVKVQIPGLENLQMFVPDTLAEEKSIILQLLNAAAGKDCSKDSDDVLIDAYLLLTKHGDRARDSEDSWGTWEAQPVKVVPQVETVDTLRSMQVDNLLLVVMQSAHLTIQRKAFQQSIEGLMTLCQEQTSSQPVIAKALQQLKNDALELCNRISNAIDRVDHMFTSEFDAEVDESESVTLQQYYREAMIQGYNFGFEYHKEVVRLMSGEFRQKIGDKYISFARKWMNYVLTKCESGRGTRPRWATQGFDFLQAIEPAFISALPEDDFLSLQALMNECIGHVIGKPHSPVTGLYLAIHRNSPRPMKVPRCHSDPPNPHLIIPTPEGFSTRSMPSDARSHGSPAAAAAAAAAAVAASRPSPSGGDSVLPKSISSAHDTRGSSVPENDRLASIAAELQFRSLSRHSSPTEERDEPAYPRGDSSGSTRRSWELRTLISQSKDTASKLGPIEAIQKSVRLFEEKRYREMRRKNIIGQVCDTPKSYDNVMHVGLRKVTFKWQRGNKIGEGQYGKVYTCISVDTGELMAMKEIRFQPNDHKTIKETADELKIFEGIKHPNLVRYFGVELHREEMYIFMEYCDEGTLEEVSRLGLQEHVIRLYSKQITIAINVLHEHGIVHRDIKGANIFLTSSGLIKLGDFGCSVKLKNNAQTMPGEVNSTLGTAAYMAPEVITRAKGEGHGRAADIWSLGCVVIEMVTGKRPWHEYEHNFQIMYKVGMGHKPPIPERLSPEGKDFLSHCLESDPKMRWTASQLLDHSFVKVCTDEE
protocolSummary: Inhibition of MAP3K4
pIC50: −log10 of the molar value.
testReadout: pIC50

Problem: Hello, I am looking for reported pIC50 with Mitogen-activated protein kinase kinase kinase 4 (Homo sapiens, UniProt Q9Y6R4) for `CC(C)(C)NS(=O)(=O)c1cncc(-c2ccn3nc(N)nc3c2)c1` . Could you help?
Solution: < 5.00

---

systemName: UniProtKB Q14680
Sequence (Q14680 whole entry): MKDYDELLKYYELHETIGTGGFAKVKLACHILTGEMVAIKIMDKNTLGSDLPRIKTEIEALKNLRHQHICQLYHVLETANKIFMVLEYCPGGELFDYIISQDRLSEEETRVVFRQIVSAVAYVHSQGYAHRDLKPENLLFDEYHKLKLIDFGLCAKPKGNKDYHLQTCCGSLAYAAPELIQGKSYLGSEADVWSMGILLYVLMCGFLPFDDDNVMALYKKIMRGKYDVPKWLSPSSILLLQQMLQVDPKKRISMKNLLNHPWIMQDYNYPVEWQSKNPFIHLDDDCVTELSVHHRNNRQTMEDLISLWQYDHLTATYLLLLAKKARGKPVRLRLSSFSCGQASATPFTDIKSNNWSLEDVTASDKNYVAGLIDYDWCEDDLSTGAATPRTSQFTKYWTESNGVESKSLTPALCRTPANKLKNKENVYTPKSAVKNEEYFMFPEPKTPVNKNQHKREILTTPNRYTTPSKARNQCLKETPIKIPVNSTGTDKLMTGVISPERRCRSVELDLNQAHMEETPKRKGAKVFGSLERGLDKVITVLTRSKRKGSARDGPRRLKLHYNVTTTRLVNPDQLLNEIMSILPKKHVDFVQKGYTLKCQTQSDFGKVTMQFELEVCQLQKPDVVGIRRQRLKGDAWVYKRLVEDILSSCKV
pIC50: −log10 of the molar value.
testReadout: pIC50

Problem: Hello, I am looking for reported pIC50 with UniProtKB Q14680 for `CC(C)(C)NS(=O)(=O)c1cncc(-c2ccn3nc(N)nc3c2)c1` . Could you help?
Solution: < 5.00

---

systemName: Casein kinase II subunit alpha (Homo sapiens)
protocolSummary: Inhibition of CSNK2A1
testReadout: IC50

Problem: Looking for the measured IC50 of `CC(C)(C)NS(=O)(=O)c1cncc(-c2ccn3nc(N)nc3c2)c1` , can you help?
Solution: > 10 µM

---

systemName: Casein kinase I isoform gamma-1 (Homo sapiens, UniProt Q9HCP0)
Sequence (Q9HCP0 whole entry, canonical isoform): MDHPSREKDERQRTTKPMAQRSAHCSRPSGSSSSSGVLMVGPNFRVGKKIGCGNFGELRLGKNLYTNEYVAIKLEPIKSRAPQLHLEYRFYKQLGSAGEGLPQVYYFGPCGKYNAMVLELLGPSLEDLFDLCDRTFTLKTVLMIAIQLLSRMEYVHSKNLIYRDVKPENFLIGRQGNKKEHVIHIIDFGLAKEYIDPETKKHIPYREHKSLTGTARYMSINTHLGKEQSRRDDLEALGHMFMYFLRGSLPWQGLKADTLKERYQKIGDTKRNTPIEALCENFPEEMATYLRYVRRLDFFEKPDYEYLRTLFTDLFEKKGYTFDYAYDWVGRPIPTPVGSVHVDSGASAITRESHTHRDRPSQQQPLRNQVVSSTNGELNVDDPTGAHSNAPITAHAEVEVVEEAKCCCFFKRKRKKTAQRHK
protocolSummary: Inhibition of CSNK1G1
testReadout: pIC50
Here pIC50 is given on a logarithmic scale as minus log10 of the concentration in mol/L.

Problem: Hello, I am looking for reported pIC50 with Casein kinase I isoform gamma-1 (Homo sapiens, UniProt Q9HCP0) for `CC(C)(C)NS(=O)(=O)c1cncc(-c2ccn3nc(N)nc3c2)c1` . Could you help?
Solution: 5.02

---

systemName: Phosphorylase b kinase gamma catalytic chain, liver/testis isoform (Homo sapiens)
Sequence (P15735 whole entry, canonical isoform): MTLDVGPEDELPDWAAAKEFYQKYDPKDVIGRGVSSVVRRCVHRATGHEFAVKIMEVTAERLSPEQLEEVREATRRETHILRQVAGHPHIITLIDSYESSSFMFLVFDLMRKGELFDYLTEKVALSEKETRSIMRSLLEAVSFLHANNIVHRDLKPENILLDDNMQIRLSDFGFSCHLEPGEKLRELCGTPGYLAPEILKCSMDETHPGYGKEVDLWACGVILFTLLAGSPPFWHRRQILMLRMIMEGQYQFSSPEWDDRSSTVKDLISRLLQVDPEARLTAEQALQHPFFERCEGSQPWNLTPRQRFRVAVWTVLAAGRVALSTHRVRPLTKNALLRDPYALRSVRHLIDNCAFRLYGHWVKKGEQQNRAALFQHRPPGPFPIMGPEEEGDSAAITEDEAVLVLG
protocolSummary: Inhibition of PHKG2
pIC50: −log10 of the molar value.
testReadout: pIC50

Problem: Looking for the measured pIC50 of `CC(C)(C)NS(=O)(=O)c1cncc(-c2ccn3nc(N)nc3c2)c1` , can you help?
Solution: < 5.00

---

systemName: Mitogen-activated protein kinase 11 (Homo sapiens, UniProt Q15759)
protocolSummary: Inhibition of MAPK11
pIC50: −log10 of the molar value.
testReadout: pIC50

Problem: Looking for the measured pIC50 of `CC(C)(C)NS(=O)(=O)c1cncc(-c2ccn3nc(N)nc3c2)c1` , can you help?
Solution: < 5.00

---

systemName: Inhibitor of nuclear factor kappa-B kinase subunit epsilon (Homo sapiens, UniProt Q14164)
protocolSummary: Inhibition of IKBKE
testReadout: IC50

Problem: Looking for the measured IC50 of `CC(C)(C)NS(=O)(=O)c1cncc(-c2ccn3nc(N)nc3c2)c1` , can you help?
Solution: > 10 µM

---

systemName: Serine/threonine-protein kinase Nek2 (Homo sapiens)
Sequence (P51955 whole entry): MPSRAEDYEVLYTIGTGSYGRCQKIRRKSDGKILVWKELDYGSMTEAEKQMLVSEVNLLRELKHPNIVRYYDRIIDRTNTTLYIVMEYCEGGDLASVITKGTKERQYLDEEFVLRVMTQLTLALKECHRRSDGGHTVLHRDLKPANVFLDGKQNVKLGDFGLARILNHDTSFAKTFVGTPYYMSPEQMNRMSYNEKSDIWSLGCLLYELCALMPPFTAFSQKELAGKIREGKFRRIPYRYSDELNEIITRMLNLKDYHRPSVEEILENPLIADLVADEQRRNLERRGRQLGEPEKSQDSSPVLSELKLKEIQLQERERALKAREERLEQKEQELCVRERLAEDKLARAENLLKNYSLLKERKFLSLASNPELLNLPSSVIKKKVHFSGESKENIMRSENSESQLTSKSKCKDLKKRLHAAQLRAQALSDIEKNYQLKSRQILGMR
protocolSummary: Inhibition of NEK2
pIC50: −log10 of the molar value.
testReadout: pIC50

Problem: Looking for the measured pIC50 of `CC(C)(C)NS(=O)(=O)c1cncc(-c2ccn3nc(N)nc3c2)c1` , can you help?
Solution: < 5.00

---

systemName: Cyclin-dependent kinase 2 (Homo sapiens)
testReadout: IC50

Problem: Looking for the measured IC50 of `CC(C)(C)NS(=O)(=O)c1cncc(-c2ccn3nc(N)nc3c2)c1` , can you help?
Solution: > 10 µM

---

systemName: Ephrin type-A receptor 2 (Homo sapiens)
testReadout: IC50

Problem: Looking for the measured IC50 of `CC(C)(C)NS(=O)(=O)c1cncc(-c2ccn3nc(N)nc3c2)c1` , can you help?
Solution: > 10 µM

---

systemName: Tyrosine-protein kinase Fes/Fps (Homo sapiens)
Sequence (P07332 whole entry): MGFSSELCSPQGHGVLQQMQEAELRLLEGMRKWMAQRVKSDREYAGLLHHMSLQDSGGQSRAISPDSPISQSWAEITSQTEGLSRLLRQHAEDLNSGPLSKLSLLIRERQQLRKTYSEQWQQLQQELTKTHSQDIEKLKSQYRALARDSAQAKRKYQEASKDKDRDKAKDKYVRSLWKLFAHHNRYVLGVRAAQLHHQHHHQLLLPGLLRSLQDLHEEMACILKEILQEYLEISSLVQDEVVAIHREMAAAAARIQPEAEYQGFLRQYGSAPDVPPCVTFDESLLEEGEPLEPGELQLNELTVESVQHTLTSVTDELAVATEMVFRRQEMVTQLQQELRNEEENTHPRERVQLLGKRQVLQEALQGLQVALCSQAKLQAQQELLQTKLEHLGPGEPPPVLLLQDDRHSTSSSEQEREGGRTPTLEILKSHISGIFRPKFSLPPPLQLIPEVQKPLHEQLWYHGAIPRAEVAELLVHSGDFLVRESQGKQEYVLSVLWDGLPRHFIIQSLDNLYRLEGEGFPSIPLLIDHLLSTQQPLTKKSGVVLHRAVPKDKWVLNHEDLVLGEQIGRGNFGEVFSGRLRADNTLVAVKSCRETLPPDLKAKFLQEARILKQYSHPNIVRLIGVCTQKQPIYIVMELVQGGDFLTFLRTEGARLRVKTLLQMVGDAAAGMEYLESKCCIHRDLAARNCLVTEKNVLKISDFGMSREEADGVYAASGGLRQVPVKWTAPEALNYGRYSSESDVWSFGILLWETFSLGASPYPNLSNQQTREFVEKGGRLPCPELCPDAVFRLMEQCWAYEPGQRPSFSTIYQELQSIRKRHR
pIC50: −log10 of the molar value.
testReadout: pIC50

Problem: Looking for the measured pIC50 of `CC(C)(C)NS(=O)(=O)c1cncc(-c2ccn3nc(N)nc3c2)c1` , can you help?
Solution: < 5.00

---

Test system: Hepatocyte
protocolSummary: Metabolic stability in rat hepatocytes measured per gram of tissue
Type: ADME, cell-based
testReadout: CLint (mL/min/g)
Unit mL/min/g implied. Number only.

Problem: Looking for the measured CLint of `CC(C)(C)NS(=O)(=O)c1cncc(-c2cc(F)n3nc(N)nc3c2)c1` , can you help?
Solution: 7.5

---

protocolSummary: Cmax in mouse at 3 mg/kg, po BID
Type: ADME, organism-based
Parameters: dose 3 mg/kg, route oral
protocolConditions: in vivo
testReadout: Cmax

Problem: Looking for the measured Cmax of `CC(C)(C)NS(=O)(=O)c1cncc(-c2ccn3nc(N)nc3c2)c1` , can you help?
Solution: 2500 nM

---

systemName: Mitogen-activated protein kinase kinase kinase 3 (Homo sapiens)
Sequence (Q99759 whole entry): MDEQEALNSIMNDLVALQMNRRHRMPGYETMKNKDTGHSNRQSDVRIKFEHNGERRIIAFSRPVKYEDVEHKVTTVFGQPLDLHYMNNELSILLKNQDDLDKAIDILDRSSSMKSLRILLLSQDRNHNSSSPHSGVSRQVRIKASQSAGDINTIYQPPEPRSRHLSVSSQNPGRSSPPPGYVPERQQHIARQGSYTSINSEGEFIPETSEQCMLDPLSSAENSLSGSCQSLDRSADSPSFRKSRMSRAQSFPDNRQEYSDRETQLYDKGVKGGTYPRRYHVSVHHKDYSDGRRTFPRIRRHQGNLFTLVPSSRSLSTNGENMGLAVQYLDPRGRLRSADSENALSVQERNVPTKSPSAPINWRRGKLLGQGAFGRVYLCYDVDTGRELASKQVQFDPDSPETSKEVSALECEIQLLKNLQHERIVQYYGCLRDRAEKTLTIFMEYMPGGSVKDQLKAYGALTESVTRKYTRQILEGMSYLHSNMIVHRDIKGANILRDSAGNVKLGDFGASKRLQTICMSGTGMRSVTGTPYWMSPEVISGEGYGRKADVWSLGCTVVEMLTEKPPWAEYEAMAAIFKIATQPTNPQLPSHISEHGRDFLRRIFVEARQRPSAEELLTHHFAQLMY
protocolSummary: Inhibition of MAP3K3
pIC50: −log10 of the molar value.
testReadout: pIC50

Problem: Looking for the measured pIC50 of `CC(C)(C)NS(=O)(=O)c1cncc(-c2ccn3nc(N)nc3c2)c1` , can you help?
Solution: < 5.00

---

protocolSummary: Oral bioavailability in cynomolgus monkey
Format: ADME, organism-based, Macaca fascicularis
protocolConditions: in vivo
testReadout: bioavailability (%)
Unit % implied. Number only.

Problem: Looking for the measured bioavailability of `CC(C)(C)NS(=O)(=O)c1cncc(-c2ccn3nc(N)nc3c2)c1` , can you help?
Solution: 88

---

systemName: Mitogen-activated protein kinase kinase kinase 1 (Homo sapiens)
protocolSummary: Inhibition of MAP3K1
testReadout: IC50

Problem: Looking for the measured IC50 of `CC(C)(C)NS(=O)(=O)c1cncc(-c2ccn3nc(N)nc3c2)c1` , can you help?
Solution: > 10 µM

---

systemName: Protein kinase C alpha type (Homo sapiens, UniProt P17252)
testReadout: IC50

Problem: Looking for the measured IC50 of `CC(C)(C)NS(=O)(=O)c1cncc(-c2ccn3nc(N)nc3c2)c1` , can you help?
Solution: > 10 µM

---

systemName: Phosphatidylinositol 4,5-bisphosphate 3-kinase catalytic subunit gamma isoform (Homo sapiens)
protocolSummary: Inhibition of PI3Kgamma by kinobeads assay
testReadout: pIC50
Here pIC50 is given on a logarithmic scale as minus log10 of the concentration in mol/L.

> print(dat)
                                  molsmiles  testreadout  measurednumber
1  CC(C)(C)NS(=O)(=O)c1cncc(-c2cc(F)c3nc(N)nn3c2)c1        pIC50            7.60
2  CC1(C)CCN1S(=O)(=O)c1cncc(-c2ccn3nc(N)nc3c2)c1        pIC50            7.60
3  CCN(CC)S(=O)(=O)c1cncc(-c2ccn3nc(N)nc3c2)c1        pIC50            8.10
4  CC(C)(NS(=O)(=O)c1cncc(-c2ccn3nc(N)nc3c2)c1)C(F)(F)F        pIC50            7.70
5  CC(C)(C)NS(=O)(=O)c1cncc(-c2ccn3nc(N)nc3c2)c1        pIC50            7.90
6  Nc1nc2cc(-c3cncc(S(=O)(=O)Nc4ccccc4)c3)ccn2n1        pIC50            7.40
7  Nc1nc2cc(-c3cncc(S(=O)(=O)NCc4ccccc4)c3)ccn2n1        pIC50            7.00
8  CC(C)(C)NS(=O)(=O)c1cncc(-c2cc(F)n3nc(N)nc3c2)c1        pIC50            7.80

Problem: Looking for the measured pIC50 of `CCCNS(=O)(=O)c1cncc(-c2ccn3nc(N)nc3c2)c1` , can you help?
Solution: 7.50

Problem: Continue with `CS(=O)(=O)c1cncc(-c2ccn3nc(N)nc3c2)c1`
Solution: 7.10

Problem: Continue with `Nc1nc2cc(-c3cncc(S(N)(=O)=O)c3)ccn2n1`
Solution: 7.70
